Assay: chemical genetic growth profiling, strain panel (AID 1159580);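 also: tested at 20 µM; growth read once vehicle control cultures reached saturation at 30 °C; 1 = growth at the plate median or of vehicle wells; lower values mean less growth of the strain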
Conditions: S. cerevisiae deletion strains, growth OD, locus YBR229C, strain ROT2, hits give low values
Among all 5,500 compounds or so, about 2,000 (36%) were called active. Inconclusive results (about 18%) are left out. The list shows a part of the results.
Measurement Name: normalized growth

Dear colleague, I am looking for the recorded normalized growth of the following molecule: CC(=O)Oc1c(C)cccc1C(=O)O 0.988 (inactive)

// returns reported normalized growth for input C=CCCCCCCCCCCCC(O)CC(O)COC(C)=O (stereo not given) (tested in a mixture with another compound) 1 (inactive)

# lookup: normalized growth of Nc1cc2c(cc1Cl)C(=O)NC2=O 0.999 (inactive)

Given NC(CO)C(=O)NNCc1ccc(O)c(O)c1O (stereo not given) , state its recorded normalized growth. 1.02 (inactive)

What normalized growth value was documented for this molecule, O=S1OCC2C(CO1)C1(Cl)C(Cl)=C(Cl)C2(Cl)C1(Cl)Cl (stereo not given) ? 0.998 (inactive)

// returns reported normalized growth for input CCOC(=O)[C@H](CCc1ccccc1)N[C@@H](C)C(=O)N1[C@H](C(=O)O)C[C@@H]2CCC[C@@H]21 1.01 (inactive)

normalized growth lookup needed for O=C1[C@H](CCC(O)c2ccc(F)cc2)[C@@H](c2ccc(O)cc2)N1c1ccc(F)cc1 (stereo not given in full) , thanks. 0.99 (inactive)

// normalized growth lookup, key: CC1C[C@H]2CC(=O)[C@H]3CCCN4CCC[C@H]2[C@]34C1 (stereo not given in full) 1 (inactive)

Would you kindly share the measured normalized growth for Cc1ccc(Cl)c(Nc2ccccc2C(=O)O)c1Cl ? 0.884 (active)

# query: normalized growth of entry Cc1ccc(NS(C)(=O)=O)cc1N=Cc1ccc(Cl)c(Cl)c1 1 (inactive)

Tell me the measured normalized growth of CO[C@@]1(NC(=O)CSCC#N)C(=O)N2C(C(=O)O)=C(CSc3nnnn3C)CSC21 (stereo not given in full) , please. 1.01 (inactive)

Fill in: normalized growth of C#CCCCCCCCCCCCC(O)CC(O)COC(C)=O (stereo not given) is ___ 0.982 (inactive)

Please give the measured normalized growth for this molecule: C#CCCCCCCCCCCCC(O)CC(O)CO (stereo not given) 1 (inactive)

Report normalized growth for CC1(C)O[C@@H]2CC3C4CCC5=CC(=O)CCC5(C)C4(F)C(O)CC3(C)[C@]2(C(=O)CCl)O1 (stereo not given in full) please. 1 (inactive)

Dear colleague, I am looking for the recorded normalized growth of the following molecule: O=c1cc[nH]c(=S)[nH]1 1.01 (inactive)

----------
Test: chemical genetic growth profiling, strain panel (AID 1159580);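 also: tested at 20 µM; growth read once vehicle control cultures reached saturation at 30 °C; 1 = growth at the plate median or of vehicle wells; lower values mean less growth of the strain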
Conditions: S. cerevisiae deletion strains, growth OD, locus YKL085W, strain MDH1 (second series), hits give low values
Out of some 5,500 compounds screened, about 2,000 (36%) were called active. About 18% were inconclusive and are not listed. This is one part of the list.
Could you please report measured normalized growth for the items listed next?
// keep it numeric: no unit symbol after the value

Sample COc1ccc2c(c1OC)C(=O)OC2[C@H]1c2c(cc3c(c2OC)OCO3)CCN1C (some centres undefined) — what was its normalized growth? 0.991

Return reported normalized growth; argument: CC(=O)OCC(OC(C)=O)C(OC(C)=O)C(OC(C)=O)C(OC(C)=O)C(COC(C)=O)OC(C)=O (centres undefined) 0.992

Return reported normalized growth; argument: CCNC(=O)CC[C@H](N)C(=O)O 1.02

Sample O=C(O)c1cc2cc(Cc3cccnc3)ccc2o1 — what was its normalized growth? 0.999

Please look up its normalized growth: Cn1c(=O)c2[nH]cnc2n(C)c1=O 0.982

Recorded normalized growth for COc1cc(-c2coc3cc(OCc4ccccc4)c(OC)c(O)c3c2=O)cc(O)c1OC , please? 0.996

Could you share which normalized growth value was measured for C#CCCCCCCCCCCCC(O)CC(O)CO (centres undefined) ? 1.01

What value of normalized growth has been recorded for this entry: O=C1OC(c2ccc(O)cc2)(c2ccc(O)cc2)c2ccccc21 0.975

# input compound: C[C@@H]1C(=O)OC2[C@H](O)C34[C@@H]5OC(=O)[C@@]3(O[C@@H]3OC(=O)[C@H](O)[C@@]34[C@H](C(C)(C)C)[C@H]5O)[C@]21O (some centres undefined) ; wanted: its normalized growth 1.01

Fill blank: measured normalized growth of the compound CO/N=C(\C(=O)N[C@@H]1C(=O)N2C(C(=O)O)=C(CSc3nc(=O)c(O)nn3C)CS[C@H]12)c1csc(N)n1 is ____. 0.984

If you can, please state the reported normalized growth value of COc1cc(-c2coc3cc(OC)c(OC)c(OC)c3c2=O)cc(OC)c1OC . 0.973

GET /values?readout=normalized growth&item= Cc1cccc(Nc2ccccc2C(=O)O)c1C 0.972

Looking for the measured normalized growth of CCC(C)(C)C(=O)O[C@H]1C[C@@H](C)C=C2C=C[C@H](C)[C@H](CC[C@@H]3C[C@@H](O)CC(=O)O3)[C@H]21 , can you help? 1.02

Given the entry C=CCSCC1Nc2cc(Cl)c(S(N)(=O)=O)cc2S(=O)(=O)N1 (centres undefined) , report its measured normalized growth. 1

What does the data say about its normalized growth? Entry: Cc1cccc(C(=O)O)c1O 1

// returns reported normalized growth for input NC(N)=NS(=O)(=O)c1ccc(N)cc1 1.02

May I ask what normalized growth has been recorded for NC[C@@H]1CC[C@@H](N)[C@@H](O[C@H]2[C@H](O)[C@@H](O[C@H]3O[C@H](CO)[C@@H](O)[C@H](N)[C@H]3O)[C@H](N)C[C@@H]2N)O1 ? 0.983

I am curious: what normalized growth value has been reported for CC(=O)OCC(COC(C)=O)OC(C)=O ? 1.01

For the compound CC(=O)Oc1c(C)cccc1C(=O)O , what normalized growth is on record? 1

----------
Assay: chemical genetic growth profiling, strain panel (AID 1159580);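 also: tested at 20 µM; growth read once vehicle control cultures reached saturation at 30 °C; 1 = growth at the plate median or of vehicle wells; lower values mean less growth of the strain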
Conditions: S. cerevisiae deletion strains, growth OD, locus YGL240W, strain doc1
The whole screen tested about 5,500 compounds, of which about 2,000 (36%) were called active. Inconclusive results (about 18%) are left out. Cut-off read from the data, not from the text of the source: active = normalized growth mostly below about 0.91 (no sharp cut-off); inconclusive = no clear call, values can overlap the other calls; inactive = mostly above about 0.92. Some of the results follow.
// classify into label 1 (active), label 0 (inactive)

Please indicate how the test categorized CC(=O)N[C@@H](CS)C(=O)O . label 0

Please share the test call associated with Cc1cccc(Nc2ccccc2C(=O)O)c1C . label 0

Any idea what this test logged for CC[N+](CC)(CC)CCOc1cccc(OCC[N+](CC)(CC)CC)c1OCC[N+](CC)(CC)CC ? label 0

Query: recorded result category for Nc1ccc(N=Nc2ccccc2)c(N)n1 in this test label 1

Each compound tested received a call. Report the one for O=C1OC(c2ccc(O)cc2)(c2ccc(O)cc2)c2ccccc21 . label 0

I'd appreciate the recorded outcome for C=C1CCC2C(CC2(C)C)C(=C)CC/C1=N\O (centres undefined) from this test. label 0

Dear colleague, could you share the recorded outcome for CC1C[C@H]2CC(=O)[C@H]3CCCN4CCC[C@H]2[C@]34C1 (some centres undefined) when you have a moment? label 0

Fill in: this test's call for O=C1OC2(c3ccc(O)cc3Oc3cc(O)ccc32)c2ccccc21 is ___ label 0

Any idea what this test logged for CC(=O)Oc1c(C)cccc1C(=O)O ? label 0

Write down the call the test reported for this compound. Item: CC(C)NC[C@H](O)COc1cccc2ccccc12 label 0

// return assay outcome for CC(C)NCC(O)COc1cccc2ccccc12 (centres undefined) label 0

Give the logged outcome of this assay for the following compound: CO/N=C(\C(=O)NC1C(=O)N2C(C(=O)O)=C(COC(N)=O)CSC12)c1ccco1 (centres undefined) label 0

Assay outcome for C=CC(N)CCC(=O)O (centres undefined) : what was it? label 0

Would you mind telling me which call this test gave OCCOCCN1CCN(C2=Nc3ccccc3Sc3ccccc32)CC1 ? label 0

----------
Would you mind telling me the reported normalized growth of each entry?
Assay: chemical genetic growth profiling, strain panel (AID 1159580);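 also: tested at 20 µM; growth read once vehicle control cultures reached saturation at 30 °C; 1 = growth at the plate median or of vehicle wells; lower values mean less growth of the strain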
Conditions: S. cerevisiae deletion strains, growth OD, locus YNL224C, strain SQS1, hits give low values
Out of some 5,500 compounds screened, about 2,000 (36%) were called active. Roughly 18% stayed inconclusive and do not appear here. The list shows a part of the results.
Please respond with just the number, no unit label.

If you can, please state the reported normalized growth value of O=C(O)c1cc2cc(Cc3cccnc3)ccc2o1 . 1.02

GET /values?readout=normalized growth&item= C[N+]1(C)C2CC(OC(=O)[C@H](CO)c3ccccc3)CC1C1OC12 (some centres not stated) 0.994

Given CC1(C)NC(=O)N(c2ccc([N+](=O)[O-])c(C(F)(F)F)c2)C1=O , state its recorded normalized growth. 0.991

Recorded normalized growth for O=C(O)C1CCNCC1 , please? 0.997

May I ask what normalized growth has been recorded for Oc1cc2c(cc1O)CN(C(=S)NCCc1ccc(Cl)cc1)CCC2 ? 0.997

Please give the measured normalized growth for this molecule: CC(C)NCC(O)c1cc(O)cc(O)c1 (configuration not stated) 0.997

Using the record for CCCCCCCCCCCCCC(=O)O[C@@H]1[C@@H](C)[C@@]2(O)[C@@H](C=C(CO)C[C@@]3(O)C(=O)C(C)=C[C@@H]23)C2C(C)(C)[C@@]21OC(C)=O (some centres not stated) , report its normalized growth. 1.01

Every entry's value here was drawn from PubChem BioAssay AID1159580.
